Hey, just so you know, these numbers are from the Immune Epitope Database (IEDB).

Tested on: HLA-A*02:01
Test description: IEDB peptide-MHC binding, purified MHC/direct/fluorescence; filed as Kd, often an IC50 or EC50 that approximates it; bounds were set here for any values at or beyond the usual limits of such assays
Cond: source organism: Shigella dysenteriae
Endpoint label: Kd

*Q* Given the sequence AEMRETHWL , what is its reported Kd?
*A* ≥ 20 µM

###

Tested on: HLA-B*40:01
Test description: IEDB peptide-MHC binding, purified MHC/direct/fluorescence; filed as Kd, often an IC50 or EC50 that approximates it; bounds were set here for any values at or beyond the usual limits of such assays
Cond: source organism: Pseudomonas aeruginosa
pKd: −log10 of the molar value.
Endpoint label: pKd

*Q* Lab request: please report pKd under test system HLA-B*40:01 for RSFAERLDR
*A* ≤ 4.70

###

Tested on: HLA-A*02:19
Test description: IEDB peptide-MHC binding, purified MHC/competitive/fluorescence; filed as Kd, often an IC50 or EC50 that approximates it; bounds were set here for any values at or beyond the usual limits of such assays
Cond: source organism: Burkholderia pseudomallei 91
Endpoint label: Kd

*Q* # Kd lookup, item RAYAAMHLW
*A* ≥ 20 µM

###

Tested on: HLA-A*26:01
Test description: IEDB peptide-MHC binding, purified MHC/competitive/fluorescence; filed as Kd, often an IC50 or EC50 that approximates it; bounds were set here for any values at or beyond the usual limits of such assays
Cond: source organism: Rickettsia sibirica 246
pKd: −log10 of the molar value.
Endpoint label: pKd

*Q* Which pKd is reported with HLA-A*26:01 for this entry: YLKKLDDFY ?
*A* ≤ 4.70

###

Tested on: HLA-B*58:01
Test description: IEDB peptide-MHC binding, purified MHC/direct/fluorescence; filed as Kd, often an IC50 or EC50 that approximates it; bounds were set here for any values at or beyond the usual limits of such assays
Cond: source organism: Listeria monocytogenes FSL N3-165
Endpoint label: pKd
Note on pKd: it is the negative log10 of concentration, concentration in mol/L.

*Q* Record WTRPRYIEI : what is its pKd with HLA-B*58:01?
*A* 6.37

###

Tested on: HLA-B*08:01
Test description: IEDB peptide-MHC binding, purified MHC/competitive/radioactivity; filed as Kd, often an IC50 or EC50 that approximates it; bounds were set here for any values at or beyond the usual limits of such assays
Cond: source organism: Hepatitis C virus (isolate 1)
pKd: −log10 of the molar value.
Endpoint label: pKd

*Q* Item: ATDALMTGY Test system: HLA-B*08:01 Read-out: pKd Value: ?
*A* ≤ 4.19

###

Tested on: HLA-B*27:05
Test description: IEDB peptide-MHC binding, purified MHC/competitive/fluorescence; bounds were set here for any values at or beyond the usual limits of such assays
Cond: source organism: Homo sapiens
Endpoint label: pIC50
The meaning of pIC50 here: minus log10 of the concentration in molar units.

*Q* If you can, please state the reported pIC50 value of RRFFPYYV .
*A* 5.49

###

Tested on: HLA-A*02:16
Test description: IEDB peptide-MHC binding, purified MHC/competitive/fluorescence; filed as Kd, often an IC50 or EC50 that approximates it; bounds were set here for any values at or beyond the usual limits of such assays
Cond: source organism: Burkholderia pseudomallei 91
pKd: −log10 of the molar value.
Endpoint label: pKd

*Q* Could you tell me which pKd is on file for RAYAAMHLW ?
*A* ≤ 4.70
